Tested on: T1, human MAdCAM expressed on cells (human, UniProt Q13477 19-382)
T1 construct: whole, on cells; also called MADCAM1
T1 sequence (looked up): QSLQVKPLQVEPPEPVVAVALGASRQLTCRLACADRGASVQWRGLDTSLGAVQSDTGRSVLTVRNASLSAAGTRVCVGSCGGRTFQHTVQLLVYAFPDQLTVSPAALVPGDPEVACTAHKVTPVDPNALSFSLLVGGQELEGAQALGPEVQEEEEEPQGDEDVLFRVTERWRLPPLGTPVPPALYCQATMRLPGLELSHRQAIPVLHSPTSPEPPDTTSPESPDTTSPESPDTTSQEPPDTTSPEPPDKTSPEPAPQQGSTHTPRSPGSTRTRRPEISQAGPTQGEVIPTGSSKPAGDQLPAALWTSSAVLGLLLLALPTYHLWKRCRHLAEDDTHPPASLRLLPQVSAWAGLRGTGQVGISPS
Method notes: cell binding

Binder	binding result
MAdCAM Antibody Table 1 Clone 52 (scFv) scFv: EVQLLESGGGLVQPGGSLRLSCAASGFTFSNSDMNWVRQAPGKGLEWVAHIWNDGSQKYYADSVKGRFTISRDNSKNTLYLQMNSLRAEDTAVYYCARDRTDPGYSSAMDVWGQGTTVTVSSGGGGSGGGGSGGGGSGGGGSDIQMTQSPSSLSASVGDRVTITCRASQDIRNYLGWYQQKPGKAPKLLIYDASSLETGVPSRFSGSGSGTDFTLTISSLQPEDFATYYCQQATSLPLTFGGGTKVEIK	binds
MAdCAM Antibody Table 1 Clone 60 (scFv) scFv: EVQLLESGGGLVQPGGSLRLSCAASGFTFDDYTMHWVRQAPGKGLEWVSDISGSGGSTYYADSVKGRFTISRDNSKNTLYLQMNSLRAEDTAVYYCAKDVVVAGTPLHFDYWGQGTLVTVSSGGGGSGGGGSGGGGSGGGGSDIQMTQSPSSLSASVGDRVTITCQASQDISNYLNWYQQKPGKAPKLLIYAASYLQSGVPSRFSGSGSGTDFTLTISSLQPEDFATYYCQQAHNYPITFGQGTRLEIK	binds
MAdCAM Antibody Table 1 Clone 61 (scFv) scFv: EVQLLESGGGLVQPGGSLRLSCAASEFTFSNAWMSWVRQAPGKGLEWVASISSTSAYIDYADSVKGRFTISRDNSKNTLYLQMNSLRAEDTAVYYCAREVVGATTFDYWGQGTLVTVSSGGGGSGGGGSGGGGSGGGGSDIQMTQSPSSLSASVGDRVTITCRASQSISTWLAWYQQKPGKAPKLLIYAASSLQSGVPSRFSGSGSGTDFTLTISSLQPEDFATYYCQQANAFPPTFGQGTRLEIK	binds

Cited source: patent US20210206856A1
